Hey, just so you know, these numbers are from patent US20230382924A1.

Molecular target: CFTR (Homo sapiens, UniProt P13569)
Sequence (P13569 with tags, fused parts or gaps DEL508-508): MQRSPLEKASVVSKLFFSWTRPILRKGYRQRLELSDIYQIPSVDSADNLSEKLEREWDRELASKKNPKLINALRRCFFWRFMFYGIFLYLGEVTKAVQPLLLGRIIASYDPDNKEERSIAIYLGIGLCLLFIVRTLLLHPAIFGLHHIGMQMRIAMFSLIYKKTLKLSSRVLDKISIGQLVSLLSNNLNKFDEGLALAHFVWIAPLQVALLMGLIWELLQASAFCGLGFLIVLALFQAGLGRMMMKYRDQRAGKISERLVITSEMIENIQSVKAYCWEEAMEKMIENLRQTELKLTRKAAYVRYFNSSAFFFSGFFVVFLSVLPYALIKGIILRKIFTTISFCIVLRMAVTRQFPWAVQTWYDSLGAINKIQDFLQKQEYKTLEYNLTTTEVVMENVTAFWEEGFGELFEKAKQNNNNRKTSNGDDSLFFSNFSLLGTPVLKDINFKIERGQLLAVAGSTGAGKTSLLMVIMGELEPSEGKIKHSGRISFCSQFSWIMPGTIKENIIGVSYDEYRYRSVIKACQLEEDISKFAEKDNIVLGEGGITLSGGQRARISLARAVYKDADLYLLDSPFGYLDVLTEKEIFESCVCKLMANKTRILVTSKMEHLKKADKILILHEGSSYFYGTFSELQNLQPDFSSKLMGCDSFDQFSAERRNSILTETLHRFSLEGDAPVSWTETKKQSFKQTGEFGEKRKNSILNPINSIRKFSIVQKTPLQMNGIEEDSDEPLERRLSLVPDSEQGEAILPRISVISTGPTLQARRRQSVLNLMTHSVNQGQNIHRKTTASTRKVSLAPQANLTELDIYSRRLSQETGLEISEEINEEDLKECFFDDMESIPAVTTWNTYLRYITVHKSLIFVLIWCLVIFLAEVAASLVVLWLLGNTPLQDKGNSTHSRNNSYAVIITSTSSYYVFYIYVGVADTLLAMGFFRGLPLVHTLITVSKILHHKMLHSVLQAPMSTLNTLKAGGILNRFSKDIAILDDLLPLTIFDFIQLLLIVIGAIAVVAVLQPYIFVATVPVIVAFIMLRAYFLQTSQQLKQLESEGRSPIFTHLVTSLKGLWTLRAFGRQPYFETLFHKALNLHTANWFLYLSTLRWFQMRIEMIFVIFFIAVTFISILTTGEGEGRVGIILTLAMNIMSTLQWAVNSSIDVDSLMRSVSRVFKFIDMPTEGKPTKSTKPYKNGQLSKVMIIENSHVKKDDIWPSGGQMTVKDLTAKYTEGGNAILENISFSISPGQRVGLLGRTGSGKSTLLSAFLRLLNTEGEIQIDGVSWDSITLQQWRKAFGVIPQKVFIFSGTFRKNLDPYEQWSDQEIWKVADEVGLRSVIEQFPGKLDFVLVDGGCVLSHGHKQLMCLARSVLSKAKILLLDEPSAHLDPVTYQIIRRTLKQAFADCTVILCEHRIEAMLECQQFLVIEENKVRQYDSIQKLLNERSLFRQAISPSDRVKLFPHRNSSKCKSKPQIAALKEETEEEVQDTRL
Test: Membrane Potential Dye, Enteroid Assay A
Format: cell-based
Details: Enteroid Assay A; read-out: Ent. A EC50
pEC50: −log10 of the molar value.
resultType: pEC50

[Q] Would you mind telling me what pEC50 value was observed for COc1ccc2c(c1)c(C(=O)N1CCC3(CC1)CNC(=O)c1cccc(c1)S(=O)(=O)Nc1nc(cc(-c4c(C)cccc4C)n1)OC3)c(C)n2C1CC1 [Compound 451] ?
[A] 4.52 to 5.52

[Q] Quick one: Cc1cccc(C)c1-c1cc2nc(n1)NS(=O)(=O)c1cccc(c1)C(=O)NCC1(CCN(C(=O)[C@]3(C)CCCN3C(=O)OC(C)(C)C)CC1)CO2 [Compound 472]
[A] 4.52 to 5.52

[Q] Quick one: Cc1cccc(C)c1-c1cc2nc(n1)NS(=O)(=O)c1cccc(c1)C(=O)NC(C)(C)CO2 [Compound 348]
[A] 4.52 to 5.52

[Q] Quick one: Cc1cccc(C)c1-c1cc2nc(n1)NS(=O)(=O)c1cccc(c1)C(=O)N[C@@H](CC(C)C)CO2 [Compound 491]
[A] 5.52 to 6.00

[Q] Quick one: Cc1ccc2cc1S(=O)(=O)Nc1nc(cc(-c3c(C)cccc3C)n1)OC[C@@H](CC1CCCCC1)NC2=O [Compound 160]
[A] 5.52 to 6.00

[Q] Quick one: Cc1cccc(C)c1-c1cc2nc(n1)NS(=O)(=O)c1cccc(c1)NC(=O)Nc1cccc(c1)O2 [Compound 1]
[A] 5.52 to 6.00

[Q] Quick one: Cc1cccc(C)c1-c1cc2nc(n1)NS(=O)(=O)c1cccc(c1)C(=O)NCC1(CCN(C(=O)C(CC(C)C)NC(=O)OC(C)(C)C)CC1)CO2 (stereo not shown) [Compound 450]
[A] 4.52 to 5.52

---

Molecular target: CFTR (Homo sapiens, UniProt P13569, DEL508-508)
Construct: endogenous in cells; host or cells: primary human bronchial epithelial cells from CF subjects (F508del/MF)
Sequence (P13569 with tags, fused parts or gaps DEL508-508): as above
Assay: HBE assay: Ussing chamber assay of CFTR-mediated short-circuit currents in F508del/MF-HBE cells
Format: cell-based
Conditions: single fixed concentration of 10 μM with 1 μM Ivacaftor, 18-24 hours, 20% human serum, compared to known Vertex corrector with 18 μM Tezacaftor and 1 μM Ivacaftor
resultType: HBE Activity at 10 μM (%)

[Q] Would you mind telling me what HBE Activity at 10 μM (%) value was observed for Cc1cccc(C)c1-c1cc2nc(n1)NS(=O)(=O)c1cccc(c1)C(=O)N[C@H](CC1CC3(CCC3)C1)CO2 ?
[A] +++ (+++ is >60%)

[Q] Quick one: Cc1cccc(C)c1-c1cc2nc(n1)NS(=O)(=O)c1cccc(c1)C(=O)NC(C(CC(C)C)c1ccc(C(C)(C)C)cc1)CO2 (stereo not shown) [Compound 207]
[A] + (+ is <30%)

[Q] Quick one: Cc1cccc(C)c1-c1cc2nc(n1)NS(=O)(=O)c1cccc(c1)C(=O)NC(C(CC(C)C)c1ccc(C(C)(C)C)cc1)CO2 (stereo not shown) [Compound 208]
[A] +++ (+++ is >60%)

[Q] Quick one: Cc1cccc(C)c1-c1cc2nc(n1)NS(=O)(=O)c1cccc(c1)C(=O)N[C@@H](CC(C)(C)C)CO2
[A] + (+ is <30%)

---

Molecular target: CFTR (Homo sapiens)
Experiment: Membrane Potential Dye, Enteroid Assay A
Assay type: cell-based
Details: Table 8
resultType: Ent. A Max Activity

[Q] Would you mind telling me what Ent. A Max Activity value was observed for Cc1cccc(C)c1-c1cc2nc(n1)NS(=O)(=O)c1cccc(c1)C(=O)N[C@H](CC(C)C)[C@@H](C1CCCCC1)O2 ?
[A] +++ (+++ is >60%)

[Q] Quick one: Cc1cccc(C)c1-c1cc2nc(n1)NS(=O)(=O)c1cccc(c1)C(=O)NC[C@@H](c1cccc(C(C)(C)C)c1)O2
[A] +++ (+++ is >60%)

[Q] Quick one: Cc1cccc(C)c1-c1cc2nc(n1)NS(=O)(=O)c1cccc(c1)C(=O)NC[C@@H](c1ccccn1)O2 [Compound 233]
[A] + (+ is <30%)

[Q] Quick one: Cc1cccc(C)c1-c1cc2nc(n1)NS(=O)(=O)c1cccc(c1)C(=O)N[C@H](CC(C)C)C(C1CC1)O2 (stereo in doubt) [Compound 239]
[A] +++ (+++ is >60%)

[Q] Quick one: Cc1cccc(C)c1-c1cc2nc(n1)NS(=O)(=O)c1cc(cc(C3CCCCC3)c1)C(=O)N[C@H](CC(C)C)CO2
[A] + (+ is <30%)

Next:
[Q] Would you mind telling me what Ent. A Max Activity value was observed for Cc1ccc(C2CNC(=O)c3cccc(c3)S(=O)(=O)Nc3nc(cc(-c4c(C)cccc4C)n3)O2)cc1 (stereo not shown) [Compound 407] ?
[A] +++ (+++ is >60%)

[Q] Quick one: COc1cccc(C2CNC(=O)c3cccc(c3)S(=O)(=O)Nc3nc(cc(-c4c(C)cccc4C)n3)O2)c1 (stereo not shown)
[A] +++ (+++ is >60%)

---

Target: UniProtKB P13569
Test: Membrane Potential Dye, Enteroid Assay A
Assay type: cell-based
Settings: Table 9
resultType: Ent. A Max Activity

[Q] Would you mind telling me what Ent. A Max Activity value was observed for Cc1cccc(C)c1-c1cc2nc(n1)NS(=O)(=O)c1cccc(c1)C(=O)N[C@@H](CC(F)(F)F)CO2 (single isomer, unassigned) [Compound 94] ?
[A] +++ (+++ is >60%)

[Q] Quick one: CC[C@H]1NC(=O)c2cccc(c2)S(=O)(=O)Nc2nc(cc(-c3c(C)cccc3C)n2)O[C@@H]1c1ccc(C(C)(C)C)cc1 [Compound 133]
[A] +++ (+++ is >60%)

---

Property: EC50; scope: individual compounds
Molecular target: CFTR (Homo sapiens)
Test: Membrane Potential Dye, Enteroid Assay A
Format: cell-based
Conditions: Table 9; read-out: Ent. A EC50

[Q] Would you mind telling me what EC50 value was observed for Cc1cccc(C)c1-c1cc2nc(n1)NS(=O)(=O)c1cccc(c1)C(=O)N[C@@H]1CN(C3CC4(CCCCC4)C3)CC[C@H]1O2 ?
[A] < 1000 nM

[Q] Quick one: CCC(C)(C)C(=O)N1CC[C@H]2NC(=O)c3cccc(c3)S(=O)(=O)Nc3nc(cc(-c4c(C)cccc4C)n3)OC2C1 (stereo in doubt)
[A] 3000 to 30000 nM

[Q] Quick one: CCC[C@H]1NC(=O)c2cccc(c2)S(=O)(=O)Nc2nc(cc(-c3c(C)cccc3C)n2)O[C@H]1c1ccc(C(C)(C)C)cc1
[A] < 1000 nM

[Q] Quick one: Cc1cccc(C)c1-c1cc2nc(n1)NS(=O)(=O)c1cccc(c1)C(=O)N[C@@H]1CN(C(=O)OC(C)(C)C)C[C@H]1O2
[A] 1000 to 3000 nM

[Q] Quick one: Cc1cccc(C)c1-c1cc2nc(n1)NS(=O)(=O)c1cccc(c1)C(=O)NCC(c1ccc(C[Si](C)(C)C)cc1)O2 (stereo not drawn)
[A] < 1000 nM

As a next step, examine the compound that follows.
[Q] Would you mind telling me what EC50 value was observed for Cc1cccc(C)c1-c1cc2nc(n1)NS(=O)(=O)c1cccc(c1)C(=O)NCC(c1ccc(/C=C/C(C)(C)C)cc1)O2 (stereo not drawn) ?
[A] < 1000 nM

---

Molecular target: CFTR (Homo sapiens, UniProt P13569)
Assay: Membrane Potential Dye, Enteroid Assay A
Type: cell-based
Conditions: Enteroid Assay A; read-out: Ent. A EC50
Property: EC50; scope: individual molecules

Some molecules with known EC50 results, for comparison:
[Q] Would you mind telling me what EC50 value was observed for Cc1cccc(C)c1-c1cc2nc(n1)NS(=O)(=O)c1cccc(c1)C(=O)N[C@H](C(C)C)CO2 ?
[A] < 1 µM

[Q] Quick one: Cc1cccc(C)c1-c1cc2nc(n1)NS(=O)(=O)c1cccc(c1)C(=O)N[C@H]1CCCC[C@H]1O2
[A] 3 to 30 µM

[Q] Quick one: Cc1cccc(C)c1-c1cc2nc(n1)NS(=O)(=O)c1cccc(c1)C(=O)NCC1(CCN(CC3CCCCC3)CC1)CO2
[A] 3 to 30 µM

[Q] Quick one: Cc1cccc(C)c1-c1cc2nc(n1)NS(=O)(=O)c1cccc(c1)C(=O)NCC1(CCN(C(=O)c3ccccc3)CC1)CO2
[A] 3 to 30 µM

[Q] Quick one: Cc1cccc(C)c1-c1cc2nc(n1)NS(=O)(=O)c1cccc(c1)C(=O)NCC1(CCN(C[C@H]3COC(C)(C)N3C(=O)OC(C)(C)C)CC1)CO2
[A] 3 to 30 µM

[Q] Quick one: Cc1cccc(C)c1-c1cc2nc(n1)NS(=O)(=O)c1cccc(c1)C(=O)N[C@H](CC1CCC1)CO2
[A] < 1 µM

Next:
[Q] Would you mind telling me what EC50 value was observed for Cc1cccc(C)c1-c1cc2nc(n1)NS(=O)(=O)c1cccc(c1)C(=O)NCC1(CCN(C(=O)c3cc4ccc(OC(F)(F)F)cc4[nH]3)CC1)CO2 ?
[A] < 1 µM

[Q] Quick one: Cc1cc2cc(c1)S(=O)(=O)Nc1nc(cc(-c3c(C)cccc3C)n1)OC[C@@H](CC1CCCCC1)NC2=O
[A] < 1 µM

[Q] Quick one: Cc1cccc(C)c1-c1cc2nc(n1)NS(=O)(=O)c1cccc(c1)C(=O)N[C@H](CC1CCCCC1)CO2
[A] < 1 µM
